- TARGET OR TEST SYSTEM: T1, EsCas13d, nuclease-dead (Eubacterium siraeum, UniProt B0MS50, R295A;H300A;R849A;H854A)
- T1 sequence: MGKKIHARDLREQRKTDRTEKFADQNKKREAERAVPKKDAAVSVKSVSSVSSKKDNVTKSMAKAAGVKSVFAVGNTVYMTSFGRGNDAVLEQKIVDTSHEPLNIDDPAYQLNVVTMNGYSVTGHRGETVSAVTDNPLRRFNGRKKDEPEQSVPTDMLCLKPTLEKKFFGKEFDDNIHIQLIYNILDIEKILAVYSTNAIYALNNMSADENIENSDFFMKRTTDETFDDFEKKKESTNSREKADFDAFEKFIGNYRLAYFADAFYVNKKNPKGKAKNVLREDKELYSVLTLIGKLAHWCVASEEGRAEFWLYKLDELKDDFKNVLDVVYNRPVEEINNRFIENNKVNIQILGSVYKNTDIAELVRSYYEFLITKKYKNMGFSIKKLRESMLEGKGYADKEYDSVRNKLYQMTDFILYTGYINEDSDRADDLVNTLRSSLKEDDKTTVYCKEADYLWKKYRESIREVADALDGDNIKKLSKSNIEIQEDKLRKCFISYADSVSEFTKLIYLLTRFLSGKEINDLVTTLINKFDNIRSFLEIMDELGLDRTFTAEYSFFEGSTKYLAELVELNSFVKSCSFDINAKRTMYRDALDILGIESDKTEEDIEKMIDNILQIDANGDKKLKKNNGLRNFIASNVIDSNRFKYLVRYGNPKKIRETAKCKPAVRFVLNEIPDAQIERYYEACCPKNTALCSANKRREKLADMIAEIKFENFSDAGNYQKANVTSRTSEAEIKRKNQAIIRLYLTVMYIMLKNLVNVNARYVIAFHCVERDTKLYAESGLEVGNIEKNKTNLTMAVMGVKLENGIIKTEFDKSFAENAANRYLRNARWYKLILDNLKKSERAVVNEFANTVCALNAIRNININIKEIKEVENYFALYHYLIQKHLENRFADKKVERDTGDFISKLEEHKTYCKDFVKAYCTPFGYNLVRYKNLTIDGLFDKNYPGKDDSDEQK
- EXPERIMENT: crRNA (strand 1, pre-loaded); Mg2+; 40 mM Tris-HCl pH 7.5, 150 mM NaCl, 6 mM MgCl2, 1 mM DTT, 0.1% Tween-20, 0.2 mg/ml BSA; 25 C; 10 min per concentration, then washed
- CONDITION SUMMARY: tags: His6-TwinStrep-SUMO cleaved; N-terminal SNAP kept (SNAP-Surface 488); label: 3' end held by stalled T7 RNA polymerase
READOUT LABEL: pKd
Reminder that pKd means the negative base-10 logarithm of the concentration expressed in mol/L.

target 1 G12U,A20C (mixed) RNA 1: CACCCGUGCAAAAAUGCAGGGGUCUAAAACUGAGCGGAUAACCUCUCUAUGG RNA 2: GGGAAUGGAUCCACAUCUACGAAUUCGUACCCUAGAGAGUUUAUCCGCUCACCGAGAUCGGAAGAGCACACGU : 7.13
target 2 MT 5'PFS UUC 3'PFS CAC (mixed) RNA 1: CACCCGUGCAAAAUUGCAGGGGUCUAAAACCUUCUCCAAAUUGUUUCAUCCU RNA 2: GGGAAUGGAUCCACAUCUACGAAUUCUUCAGGAUGAAACAAUUUGGAGAAGCACAGAUCGGAAGAGCACACGU : 7.89
target 1 A1U,C2A (mixed) RNA 1: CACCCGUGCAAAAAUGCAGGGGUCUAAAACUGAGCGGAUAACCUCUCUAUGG RNA 2: GGGAAUGGAUCCACAUCUACGAAUUCGUACCAUAGAGAGGUUAUCCGCUAUCCGAGAUCGGAAGAGCACACGU : 8.08

Quick one: pKd for target 2 MT 5'PFS AGC 3'PFS AGA (mixed) RNA 1: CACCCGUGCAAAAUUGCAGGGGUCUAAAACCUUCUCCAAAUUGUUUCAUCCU RNA 2: GGGAAUGGAUCCACAUCUACGAAUUCAGCAGGAUGAAACAAUUUGGAGAAGAGAAGAUCGGAAGAGCACACGU ? 8.15

Reported pKd for target 2 MT 5'PFS UUA 3'PFS CAC (mixed) RNA 1: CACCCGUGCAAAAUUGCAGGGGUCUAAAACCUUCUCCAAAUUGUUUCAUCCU RNA 2: GGGAAUGGAUCCACAUCUACGAAUUCUUAAGGAUGAAACAAUUUGGAGAAGCACAGAUCGGAAGAGCACACGU : what is it? 7.52

Report pKd for target 1 G15U,A16U (mixed) RNA 1: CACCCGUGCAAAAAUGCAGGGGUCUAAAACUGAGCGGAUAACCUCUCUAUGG RNA 2: GGGAAUGGAUCCACAUCUACGAAUUCGUACCAUAGUUAGGUUAUCCGCUCACCGAGAUCGGAAGAGCACACGU please. 7.81

Which measured pKd value corresponds to target 3 G3A,U8G (mixed) RNA 1: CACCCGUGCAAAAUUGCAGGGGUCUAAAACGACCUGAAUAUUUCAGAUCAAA RNA 2: GGGAAUGGAUCCACAUCUACGAAUUCGUUUUUGAUCUGAAAUAGUCAGAUCUGCAGAUCGGAAGAGCACACGU ? 6.97

Fill in: pKd of target 2 MT 5'PFS GAG 3'PFS ACU (mixed) RNA 1: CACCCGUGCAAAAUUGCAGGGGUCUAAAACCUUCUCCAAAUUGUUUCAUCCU RNA 2: GGGAAUGGAUCCACAUCUACGAAUUCGAGAGGAUGAAACAAUUUGGAGAAGACUAGAUCGGAAGAGCACACGU is ___ 8.09
